- procedureText: Study for confirmation of conversion to brexpiprazole in a buffer (stability of the evaluation compounds)
- Type: physicochemical
- settings: in buffer; decrease in 60-minute vs 0-minute reaction sample; average of duplicate
outcomeMeasure: Concentration of evaluation compound decreased (µM)

{"columns": ["smilesRepresentation", "numericValue"],
 "data": [
  ["COCCOCCOC(=O)OCOP(=O)([O-])OC[N+]1(CCCCOc2ccc3ccc(=O)[nH]c3c2)CCN(c2cccc3sccc23)CC1", 0.01],
  ["CC(C)OP(=O)([O-])OC[N+]1(CCCCOc2ccc3ccc(=O)[nH]c3c2)CCN(c2cccc3sccc23)CC1", 0.07],
  ["COCCCCOP(=O)([O-])OC[N+]1(CCCCOc2ccc3ccc(=O)[nH]c3c2)CCN(c2cccc3sccc23)CC1", 0.01],
  ["COCCOC(=O)CCCCCCCCCCC(=O)OCOP(=O)([O-])OC[N+]1(CCCCOc2ccc3ccc(=O)[nH]c3c2)CCN(c2cccc3sccc23)CC1", 0.11],
  ["CC(C)OCCOCCOCCOC(=O)OCOP(=O)([O-])OC[N+]1(CCCCOc2ccc3ccc(=O)[nH]c3c2)CCN(c2cccc3sccc23)CC1", 0.09],
  ["CC(C)C(=O)OCOP(=O)([O-])OC[N+]1(CCCCOc2ccc3ccc(=O)[nH]c3c2)CCN(c2cccc3sccc23)CC1", -0.11],
  ["O=c1ccc2ccc(OCCCC[N+]3(COP(=O)([O-])OCCCCCCCCCO)CCN(c4cccc5sccc45)CC3)cc2[nH]1", 0.04]
]}

* * *

- procedureText: in vitro
- Assay type: cell-based, human
- settings: human, differentiated hl-60 cells, 300 μmol/L, about 24 hours, PMA-differentiated HL-60 cells, LDH; no-treatment 0%, cell lysis buffer 100%; read-out: cytotoxicity (%) Evaluation compound results
Known cytotoxicity at 24 h, 300 µM of a selection of molecules

{"columns": ["molecule", "cytotoxicity at 24 h, 300 µM (%)"],
 "data": [
  ["COCCOCCOC(=O)OCOP(=O)([O-])OC[N+]1(CCCCOc2ccc3ccc(=O)[nH]c3c2)CCN(c2cccc3sccc23)CC1", -10],
  ["CC(C)=CCC/C(C)=C\\COP(=O)([O-])OC[N+]1(CCCCOc2ccc3ccc(=O)[nH]c3c2)CCN(c2cccc3sccc23)CC1", 0],
  ["O=C(O)CCCC(=O)OCOP(=O)([O-])OC[N+]1(CCCCOc2ccc3ccc(=O)[nH]c3c2)CCN(c2cccc3sccc23)CC1", -7],
  ["O=C(OCCCOC1CCCCO1)OCOP(=O)([O-])OC[N+]1(CCCCOc2ccc3ccc(=O)[nH]c3c2)CCN(c2cccc3sccc23)CC1 (stereo not shown)", 9],
  ["CN1CCN(CCOP(=O)([O-])OC[N+]2(CCCCOc3ccc4ccc(=O)[nH]c4c3)CCN(c3cccc4sccc34)CC2)CC1", -7],
  ["COCCn1nc(C(=O)OCOP(=O)([O-])OC[N+]2(CCCCOc3ccc4ccc(=O)[nH]c4c3)CCN(c3cccc4sccc34)CC2)c2ccccc21", -2],
  ["CCOC(=O)CCCCCOC(=O)OCOP(=O)([O-])OC[N+]1(CCCCOc2ccc3ccc(=O)[nH]c3c2)CCN(c2cccc3sccc23)CC1", 18],
  ["O=C(OCOP(=O)([O-])OC[N+]1(CCCCOc2ccc3ccc(=O)[nH]c3c2)CCN(c2cccc3sccc23)CC1)OCC1CCOCC1", 8],
  ["C[C@@H]1CN(CCOP(=O)([O-])OC[N+]2(CCCCOc3ccc4ccc(=O)[nH]c4c3)CCN(c3cccc4sccc34)CC2)C[C@H](C)O1", -9],
  ["O=C(OCOP(=O)([O-])OC[N+]1(CCCCOc2ccc3ccc(=O)[nH]c3c2)CCN(c2cccc3sccc23)CC1)OC1CCOCC1", 19],
  ["O=C(OC[N+]1(CCCCOc2ccc3ccc(=O)[nH]c3c2)CCN(c2cccc3sccc23)CC1)N1CCCCC1 [REX 4, reference compound]", 83],
  ["CCOC(=O)[C@H](C)OP(=O)([O-])OC[N+]1(CCCCOc2ccc3ccc(=O)[nH]c3c2)CCN(c2cccc3sccc23)CC1", -5],
  ["COCC(COC)OP(=O)([O-])OC[N+]1(CCCCOc2ccc3ccc(=O)[nH]c3c2)CCN(c2cccc3sccc23)CC1", -6]
]}
